Measured values drawn from paper PMC10075506 for this set.

Target: recombinant human IP6K2 (Homo sapiens, UniProt Q9UHH9)
Construct: made in house; host or cells: Sf9 insect cells (baculovirus, pFASTBAC1)
Sequence (Q9UHH9 1-426): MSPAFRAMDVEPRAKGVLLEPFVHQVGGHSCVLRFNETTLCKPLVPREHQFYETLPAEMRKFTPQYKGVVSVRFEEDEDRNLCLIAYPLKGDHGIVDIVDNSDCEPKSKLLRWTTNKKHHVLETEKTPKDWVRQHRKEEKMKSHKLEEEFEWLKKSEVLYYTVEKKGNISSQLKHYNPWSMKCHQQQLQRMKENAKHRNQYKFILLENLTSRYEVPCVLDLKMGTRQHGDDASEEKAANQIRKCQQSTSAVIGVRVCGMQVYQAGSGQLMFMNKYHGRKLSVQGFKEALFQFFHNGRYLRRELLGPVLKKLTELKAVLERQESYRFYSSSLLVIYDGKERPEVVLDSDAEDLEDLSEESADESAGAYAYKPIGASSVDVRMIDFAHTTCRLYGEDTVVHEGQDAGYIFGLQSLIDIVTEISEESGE
Experiment: ADP-Glo kinase assay, IP6K2
Format: biochemical
Details: Table 2; duplicates, 0.017 to 100 µM, mean ± SD; IP6K2 80 nM, IP6 10 μM, ATP 10 μM; read-out: IP6K2 IC50
Here the recorded IC50 is given for each entry.
value kind: IC50 (µM)

O=c1c(O)c(-c2ccc(Cl)cc2)oc2cc(O)c(O)cc12 [Compound 20k]	81.5
O=c1c(O)c(-c2cccs2)oc2cc(O)c(O)cc12 [Compound 23c]	73.3
O=c1c(O)c(-c2ccc(F)cc2)oc2cc(O)c(O)cc12 [Compound 20f]	61.9
O=c1c(O)c(-c2cccc(Oc3ccccc3)c2)oc2cc(O)c(O)cc12 [Compound 20o]	73.3
Cn1cc(-c2oc3cc(O)c(O)cc3c(=O)c2O)cn1 [Compound 23b]	1.79
O=c1c(O)c(-c2ccccc2)oc2cc(O)c(O)cc12 [Compound 20b]	14.5
O=c1c(O)c(-c2ccc3ccccc3c2)oc2cc(O)c(O)cc12 [Compound 23a]	97.8
O=c1c(O)c(-c2cccc(F)c2)oc2cc(O)c(O)cc12 [Compound 20g]	38.7
O=C(O)c1ccc(-c2oc3cc(O)c(O)cc3c(=O)c2O)cc1 [Compound 20r]	3.93
O=c1c(O)c(-c2ccc(O)c(O)c2)oc2cc(O)c(O)cc12 [Compound 20a]	1.77

* * *

molecular target: recombinant human IP6K2 (Homo sapiens); construct: made in house; host or cells: Sf9 insect cells (baculovirus, pFASTBAC1); assay: ADP-Glo kinase assay, IP6K2; type: biochemical
pIC50: −log10 of the molar value.
value kind: pIC50

O=C(O)c1cccc(-c2oc3cc(O)c(O)cc3c(=O)c2O)c1 [Compound 20s]	6.26

* * *

Entries with their measured IC50, system human IP6K3 (Homo sapiens, UniProt Q96PC2):
value kind: IC50 (µM)

O=c1c(O)c(-c2ccc(O)c(O)c2)oc2cc(O)cc(O)c12 [Quercetin, 3,3′,4′,5,7-pentahydroxylflavone]	4.35
O=C(O)c1cccc(-c2oc3cc(O)c(O)cc3c(=O)c2O)c1 [Compound 20s]	3.56

* * *

Target: recombinant human IP6K2 (Homo sapiens)
Construct: made in house; host or cells: Sf9 insect cells (baculovirus, pFASTBAC1)
Sequence (Q9UHH9 1-426): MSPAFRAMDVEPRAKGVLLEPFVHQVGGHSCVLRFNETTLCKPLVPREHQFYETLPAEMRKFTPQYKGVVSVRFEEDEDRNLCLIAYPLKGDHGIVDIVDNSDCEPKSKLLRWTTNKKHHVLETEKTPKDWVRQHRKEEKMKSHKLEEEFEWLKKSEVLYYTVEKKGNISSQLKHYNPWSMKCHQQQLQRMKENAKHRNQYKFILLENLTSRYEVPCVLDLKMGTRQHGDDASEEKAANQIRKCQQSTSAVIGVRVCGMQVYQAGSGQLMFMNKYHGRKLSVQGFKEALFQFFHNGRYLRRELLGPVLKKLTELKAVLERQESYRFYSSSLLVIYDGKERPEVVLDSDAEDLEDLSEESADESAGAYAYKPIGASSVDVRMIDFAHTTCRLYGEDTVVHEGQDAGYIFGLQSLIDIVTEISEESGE
Assay: ADP-Glo kinase assay, IP6K2
Type: biochemical
Details: Table 1; IP6K2 80 nM, IP6 10 μM, ATP 10 μM; read-out: IP6K2 IC50
value kind: IC50

O=C(O)c1cccc(-c2cc(=O)c3c(O)cc(O)cc3o2)c1 [Compound 16d]	2.89 µM
O=C(O)c1ccc(-c2cc(=O)c3c(O)cc(O)cc3o2)cc1 [Compound 16c]	41.9 µM
O=C(O)c1cccc(-c2cc(=O)c3cc(O)c(O)cc3o2)c1 [Compound 16b]	1.67 µM
O=C(O)c1ccc(-c2cc(=O)c3cc(O)c(O)cc3o2)cc1 [Compound 16a]	9.07 µM

* * *

Assay: in vitro
Conditions: PAMPA
Excerpt: Supporting Information Table 1. artificial membrane permeability assay (PAMPA) as described previously (reference). The apparent permeability (ranitidine, nadolol, hydrochlorothiazide). Data are mean ± S.D. (n=3). Reference: Oh, M.H., Lee, H.J., Jo, S.H., et al. Development of Cassette PAMPA for Permeability Screening. Biol Pharm
Here the recorded Papp is given for each entry.
value kind: Papp

NS(=O)(=O)c1cc2c(cc1Cl)NCNS2(=O)=O [Hydrochlorothiazide, hydrochlorothiazide]	< 0.18 ×10⁻⁶ cm/s
COCCc1ccc(OCC(O)CNC(C)C)cc1 (stereo not shown)	3.45 ×10⁻⁶ cm/s
O=C(O)c1cccc(-c2oc3cc(O)c(O)cc3c(=O)c2O)c1 [Compound 20s]	< 0.18 ×10⁻⁶ cm/s
CC(C)(C)NCC(O)COc1cccc2c1CC(O)C(O)C2 (stereo not shown)	0.089 ×10⁻⁶ cm/s
O=c1c(O)c(-c2ccc(O)c(O)c2)oc2cc(O)cc(O)c12 [Quercetin, 3,3′,4′,5,7-pentahydroxylflavone]	0.54 ×10⁻⁶ cm/s
CNC(=C[N+](=O)[O-])NCCSCc1ccc(CN(C)C)o1	< 0.18 ×10⁻⁶ cm/s
O=C(N[C@H](CO)[C@H](O)c1ccc([N+](=O)[O-])cc1)C(Cl)Cl	4.67 ×10⁻⁶ cm/s

* * *

assay: in vitro; details: PAMPA
value kind: Permeability class

O=C(O)c1cccc(-c2oc3cc(O)c(O)cc3c(=O)c2O)c1 [Compound 20s]	Low
COCCc1ccc(OCC(O)CNC(C)C)cc1 (stereo not shown) [Metoprolol, metoprolol]	High
O=C(N[C@H](CO)[C@H](O)c1ccc([N+](=O)[O-])cc1)C(Cl)Cl [Chloramphenicol, chloramphenicol]	High
CNC(=C[N+](=O)[O-])NCCSCc1ccc(CN(C)C)o1 [Ranitidine, ranitidine]	Low
CC(C)(C)NCC(O)COc1cccc2c1CC(O)C(O)C2 (stereo not shown) [Nadolol, nadolol]	Low
NS(=O)(=O)c1cc2c(cc1Cl)NCNS2(=O)=O [Hydrochlorothiazide, hydrochlorothiazide]	Low
O=c1c(O)c(-c2ccc(O)c(O)c2)oc2cc(O)cc(O)c12 [Quercetin, 3,3′,4′,5,7-pentahydroxylflavone]	Low

* * *

Here the recorded melting point is given for each entry.
value kind: melting point

O=c1cc(-c2ccc(O)cc2)oc2ccc(F)cc12	292 to 294 °C
COc1ccc(-c2cc(=O)c3c(F)cccc3o2)cc1	178 to 180 °C
COc1ccc(-c2cc(=O)c3c(F)cc(F)cc3o2)cc1	256 to 258 °C
O=c1cc(-c2ccc(O)cc2)oc2cccc(F)c12	272 to 274 °C
COc1ccc(-c2cc(=O)c3cc(F)ccc3o2)cc1	160 to 162 °C
O=c1cc(-c2ccc(O)cc2)oc2cc(F)c(F)cc12	302 to 304 °C
O=c1cc(-c2ccccc2)oc2cccc(F)c12	144 to 146 °C
O=C(O)c1ccc(-c2cc(=O)c3c(O)cc(O)cc3o2)cc1 [Compound 16c]	337 to 339 °C
O=C(O)c1cccc(-c2cc(=O)c3cc(O)c(O)cc3o2)c1 [Compound 16b]	416 to 418 °C
COc1ccc(-c2cc(=O)c3ccc(F)cc3o2)cc1	228 to 230 °C
O=C(O)c1cccc(-c2cc(=O)c3cc(F)c(F)cc3o2)c1	272 to 274 °C
O=c1cc(-c2ccccc2)oc2cc(F)ccc12	96 to 98 °C
O=c1cc(-c2ccc(O)cc2)oc2cc(F)cc(F)c12	228 to 230 °C
COc1ccc(-c2cc(=O)c3cc(F)c(F)cc3o2)cc1	200 to 202 °C
O=c1cc(-c2ccc(O)cc2)oc2cc(F)ccc12	310 to 312 °C

* * *

Entries with their measured pIC50, system human IP6K1 (Homo sapiens, UniProt Q92551):
pIC50: −log10 of the molar value.
value kind: pIC50

O=c1c(O)c(-c2ccc(O)c(O)c2)oc2cc(O)cc(O)c12 [Quercetin, 3,3′,4′,5,7-pentahydroxylflavone]	5.96
O=C(O)c1cccc(-c2oc3cc(O)c(O)cc3c(=O)c2O)c1 [Compound 20s]	5.54
